- PROTOCOL_DETAILS: Quantitative highthroughput screen to assess conditional lethalithy of NOMO1 cells grown in RPMI1640 with dialyzed fetal bovine serum (RPMI+ds) (AID 1963877); further: nearly all actives have a fitted effect of over 30% in size
- CONDITION_LABEL: NOMO1 in RPMI+dialyzed FBS viability, ATP luminescence, 48 h; series mostly up to 45.8 µM
Inconclusive results are not listed. Active and inactive are the calls of the source. The call rests on the fitted dose curve; in most records, active means well fitted cell-killing curve with a large enough effect; inconclusive means small, poorly fitted or top-dose-only effect; inactive means flat fitted curve, though single readings scatter.
Use one of these outcomes when replying: YES = active, NO = inactive

>>> label_value("COc1ccc2cc([S+]([O-])Cc3ncc(C)c(OC)c3C)nc2c1")
"NO"
>>> label_value("COC1=C2C[C@@H](C)C[C@H](OC)[C@@H](O)[C@@H](C)C=C(C)[C@H](OC(N)=O)[C@@H](OC)C=CC=C(C)C(=O)NC(=CC1=O)C2=O")
"YES"
>>> label_value("COc1cc2nc(N3CCCN(C)CC3)nc(NC3CCN(Cc4ccccc4)CC3)c2cc1OC")
"YES"
>>> label_value("C1=CCOCc2cc(ccc2OCCN2CCCC2)Nc2nccc(n2)-c2cccc(c2)OCC1")
"YES"
>>> label_value("N#CC(=Cc1ccc(O)c(O)c1)C(=O)NCc1ccccc1")
"NO"
>>> label_value("C[C@@H]1C[C@H]2[C@@H]3CCC4=CC(=O)C=C[C@]4(C)[C@@]3(Cl)[C@@H](O)C[C@]2(C)[C@@]1(OC(=O)c1ccco1)C(=O)CCl")
"YES"
>>> label_value("NC1(Cc2ccc(Cl)cc2)CCN(c2ncnc3[nH]ccc23)CC1")
"YES"
>>> label_value("O=C1Nc2ccc(I)cc2C1=Cc1cc(Br)c(O)c(Br)c1")
"NO"

For CCNc1cc(NC2CCC(O)CC2)nc(Nc2ccc3c(ccn3Cc3ccccc3)c2)n1 (stereo unspecified) , which call appears in the assay record?
NO

For `O=C(Nc1ncc(SCCN2CCCC2)s1)[C@]1(c2ccc(S(=O)(=O)C3CC3)cc2)C[C@@H]1C1CCCCC1` , which call appears in the assay record?
YES

For `CC(C)C[C@@H](C(=O)N[C@H](C(=O)OC1CCCC1)c1ccccc1)[C@H](O)C(=O)NO` , which call appears in the assay record?
YES

For `Cc1ccc2c(c1)c1c(n2CCc2ccc(C)nc2)CCN(C)C1` , which call appears in the assay record?
NO

For `NC(=O)Cc1cccc(C(=O)c2ccccc2)c1N` , which call appears in the assay record?
NO

Reference source: PubChem BioAssay (NCATS)
